Cited source for all entries: patent US20250206820A1

Assay target: T1, human ILT3 (as used in the affinity measurements) (human, UniProt Q8NHJ6 22-259, limits assumed)
T1 construct: also called immunoglobulin-like transcript 3
Assay notes: column 'ILT3 Affinity (nM)'; method and format not stated
pKd: −log10 of the molar value.

Binder	pKd
12A12 anti-ILT3 antibody (antibody, V domains shown) VH: EVQLQQSGPELVKPGASVKISCKASGYTFTDYNMDWVKQSHGKSLEWIGYIYPNNGGTGYNQKFNSKATLTVDKSSSTAYMELHSLTSEDSAVYYCASSPYYDYVGSYAMDYWGQGTSVTVSS VL: QIVLTQSPAIMSASLGERVTMTCTASSSVSSSYLHWYQQKPGSSPKLWIYSTSNLASGVPARFSGSGSGTSYSLTISSMEAEDAATYYCHQYHRSPRTFGGGTKLEIK	8.07
Hz45G10 anti-ILT3 antibody (antibody, V domains shown) VH: EVQLVESGGGLVQPGGSLRLSCAASGFTFSDYGMHWVRQAPGKGLEWVAYIFSGSSTIYYADTVKGRFTISRDNAKNSLYLQMNSLRAEDTAVYYCARADGRGAMDYWGQGTLVTVSS VL: DIQMTQSPSSLSASVGDRVTITCRASQDISKFLNWYQQKPGKAPKLLIYYTSRLHSGVPSRFSGSGSGTDFTFTISSLQPEDIATYFCQQGNTLPWTFGGGTKLEIK	9.89
3A3 anti-ILT3 antibody (antibody, V domains shown) VH: QVQLKESGPGLVAPSQSLSITCTVSGFSLTSYGVHWVRQPPGKGLEWLGVIWPGGTINYNSALMSRLSISKDNSKSQVFLKLNSLQTDDTAMYYCASDKYDGGWFAYWGQGTLVTVSA VL: DIVMTQSQKFMSTSVGDRVSITCKASQNVRTAVAWYQQKPGQSPEALIYLASNRHTGVPDRFTGSGSGTDFSLSISNVQSEDLADYFCLQHLNYPLTFGSGTKLEIK	8.70
